assay: soluble on expression in E. coli; label from the status in PepcDB or PDB records
endpoint label: soluble on expression in E. coli

q: Give its soluble on expression in E. coli value. Item: MSQIMYNYPAMLGHAGDMAGYAGTLQSLGAEIAVEQAALQSAWQGDTGITYQAWQAQWNQAMEDLVRAYHAMSSTHEANTMAMMARDTAEAAKWGG
a: not soluble

q: Give its soluble on expression in E. coli value. Item: MGSDKIHHHHHHMKLGTQNQAFFPENIEEKFAYVKEMGFEGFEIDGKLLVENLDEVKKAIEKTGLPVSTACGGYDGWIGDFIEERRLNGLEEIKAILEALAEVGGQGIVVPAAWGMFTYRLPPMVSPRSQAGDFKAVSESLVYLDKIAGETGTKVYLEPLNRYQDHMINLLSDAQKYIDENELKNVEIIADFYHMNIEEDSIPTVLETYKDSIGHIHVADNHRYQPGSGSLDFKTSFDQLKKNGYNGFLTFECRVRSENPEQAYKDALAHLKSCLI
a: not soluble
